Please respond with reported IC50, HT29 for every item in the list.
System: human colon cancer HT29
method: In vitro cell growth inhibition test, MTT assay
Format: cell-based
condition label: MTT assay 4 days after compound addition
Text: Test Example 2 In Vitro Cell Growth Inhibition Test Cells and MTT Assay Human squamous lung cancer […], human squamous lung cancer Ma44, human lung adenocarcinoma A549, human colon cancer HT29 and human pancreas cancer PANC-1 were used.
Answers are plain numbers, in µg/mL.

Reference set (4 entries):
- CCNC(=Nc1ncncc1CSc1nnc(-c2cnc(C)cn2)o1)NCC [Compound D-32]: 0.013
- CCCCNC(=Nc1nc(C)ncc1CSc1nnc(-c2ccc(N)cc2)o1)NCCCC [Compound A-169]: 0.027
- CCCCNC(=Nc1nc(C)ncc1CSc1nnc(-c2ccc(N)cc2)o1)NCC [Compound A-180]: 0.012
- CNC(=Nc1ncncc1CSc1nnc(-c2ccc(N)cc2)o1)NC [Compound A-174]: 0.012

Your task in this section: give IC50, HT29 for each listed record.
1. CCNC(=Nc1ncncc1CSc1nnc(-c2ccc([N+](=O)[O-])cc2)o1)NC(C)C [Compound A-121]
2. CCNC(=Nc1nc(C)ncc1CSc1nnc(-c2ccc(OC)cc2)o1)NCC [Compound A-73]

0.02
0.016
